// reported mass density for each item listed
Conditions: 328.15 K; 30000 kPa; Liquid; Vibrating tube method
Give the number; kg/m3 is assumed, so skip it.

Enquiry: Let me know recorded mass density for CCCCCCCC[n+]1cccc(C)c1.F[B-](F)(F)F [N-octyl-3-methylpyridinium tetrafluoroborate] , thanks.
Return: 1091.41

Enquiry: Report mass density for CCCC[n+]1cccc(C)c1.N#C[N-]C#N [1-butyl-3-methylpyridinium dicyanamide]
Return: 1042.96

Enquiry: Give the value of mass density reported for the following: `CCC[n+]1ccccc1Oc1ccc(Cl)c[n+]1CCOS(=O)(=O)[O-].F[B-](F)(F)F`
Return: 1245.19

Continuing:
Enquiry: Hello, please tell me recorded mass density for this one: CCCC[n+]1ccccc1.O=S(=O)([O-])C(F)(F)F [1-butylpyridinium trifluoromethanesulfonate]
Return: 1309.49

Enquiry: Consider the compound CCCC[n+]1ccccc1.F[B-](F)(F)F [1-butylpyridinium tetrafluoroborate] and give its recorded mass density.
Return: 1207.36

From: the NIST ThermoML archive (doi:10.1016/j.fluid.2011.12.029)
